Assayed Target: Galectin-3 (Mus musculus, UniProt P16110)
Sequence (P16110 whole entry): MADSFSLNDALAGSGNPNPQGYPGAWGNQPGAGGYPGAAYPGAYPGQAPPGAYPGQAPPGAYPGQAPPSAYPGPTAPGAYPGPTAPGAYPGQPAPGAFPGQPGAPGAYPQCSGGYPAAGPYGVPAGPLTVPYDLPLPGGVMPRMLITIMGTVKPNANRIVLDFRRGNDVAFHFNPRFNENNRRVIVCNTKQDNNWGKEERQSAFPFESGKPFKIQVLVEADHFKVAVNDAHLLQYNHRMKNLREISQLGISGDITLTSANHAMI
Assay Protocol: Inhibition of his-tagged N-terminal recombinant mouse Gal-3 preincubated for 30 mins followed by Biotin-ASF addition and measured after 1 hr by HTRF assay
Value Type: pIC50
Here pIC50 is given on a logarithmic scale as minus log10 of the concentration in mol/L.

Cn1nc([C@@H]2O[C@H](CO)[C@H](O)[C@H](n3cc(-c4ccc(Br)c(F)c4F)nn3)[C@H]2O)n(-c2cc(Cl)ccc2C(F)(F)F)c1=S (stereo in doubt; 20) = 7.40
OC[C@H]1O[C@@H](c2nncn2-c2cc(Cl)ccc2Cl)[C@H](O)[C@@H](n2cc(-c3cc(F)c(Cl)c(F)c3)nn2)[C@H]1O = 6.46

Next item in the queue.
Fill in the blank: the reported pIC50 of OC[C@H]1O[C@@H](c2n[nH]c(=S)n2-c2cc(Cl)ccc2OC(F)(F)F)[C@H](O)[C@@H](n2cc(-c3ccc(Cl)c(F)c3F)nn2)[C@H]1O (stereo in doubt; 16) is ____. 7.30
